# Tested on: H3K9me2 levels in PC3 cells
# test.description: H3K9me2 ICW assay, PC3
# Assay type: cell-based
# assay.conditions: Homo sapiens, PC-3, 48 h, read-out: ICW IC50
experimental.endpoint: IC50 (nM)
Response body: numeric value in nM, unit text excluded.

Per the records, this compound ( COc1cc2c(NC3CCN(C(C)C)CC3)nc(C3CCCCC3)nc2cc1OCCCN1CCCC1 ) has IC50 equal to 59

----------
# Test system: H3K9me2 levels in 22RV1 cells
# test.description: H3K9me2 ICW assay, 22RV1
# Assay type: cell-based
# assay.conditions: Homo sapiens, 22Rv1, 48 h, read-out: ICW IC50
experimental.endpoint: IC50 (nM)
Response body: numeric value in nM, unit text excluded.

Per the records, this compound ( COc1cc2c(NC3CCN(C(C)C)CC3)nc(C3CCCCC3)nc2cc1OCCCN1CCCC1 [Compound 5] ) has IC50 equal to 48

Taken from paper PMC3171737.
